Assayed System: Mu-type opioid receptor (Homo sapiens)
Procedure Summary: Agonist activity at human mu opioid receptor expressed in CHO cells by [35S]GTP-gammaS binding assay
Details: cho

- Smiles Entry: "Cc1cc(O)cc(C)c1C[C@H](N)C(=O)N1Cc2ccccc2C[C@H]1C(=O)NCC(=O)N1CCc2ccccc2C1"
  EC50: "0.022 µM"

* * *

Let's look at some compounds and their measured log10 of Ki.
Assayed System: Mu-type opioid receptor (Homo sapiens, UniProt P35372)
Sequence (P35372 whole entry): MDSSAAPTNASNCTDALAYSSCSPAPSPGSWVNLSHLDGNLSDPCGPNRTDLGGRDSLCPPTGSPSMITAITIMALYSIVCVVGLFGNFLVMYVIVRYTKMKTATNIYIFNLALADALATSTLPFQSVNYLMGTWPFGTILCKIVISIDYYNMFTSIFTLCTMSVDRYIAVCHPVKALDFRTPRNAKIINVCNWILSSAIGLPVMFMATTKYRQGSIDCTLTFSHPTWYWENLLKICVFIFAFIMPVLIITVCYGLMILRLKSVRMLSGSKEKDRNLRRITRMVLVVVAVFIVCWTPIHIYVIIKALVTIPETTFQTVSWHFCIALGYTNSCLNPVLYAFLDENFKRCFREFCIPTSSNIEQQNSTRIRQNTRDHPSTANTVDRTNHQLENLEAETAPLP
Procedure Summary: Binding affinity at mu opioid receptor (unknown origin)
Starred links: 1 amine or outer side, 2 acyl side, 3 side chain; linkers in the order of their positions; H or OH if unused. Positions of bridges follow the written chain, without caps; N, C: chain ends. Non-standard residues stand in square brackets, D forms with d. Residues, ends and D or L forms follow the SMILES beside them. *: point of attachment. Dmt = Cc1cc(O)cc(C)c1C[C@H](N)C(=O)O; Tic = O=C(O)[C@@H]1Cc2ccccc2CN1; CH2 = C([*:1])[*:2]; NHPh = c1ccc(N*)cc1
Readout Name: log10 of Ki (log10 of the value in nM)

- Compound: "O=C1c2ccc(O)cc2[C@@]23CCCC[C@H]2[C@@H]1N(CC1CCCO1)CC3 (stereo partly drawn)"
  log10 of Ki: -0.42
- Compound: "Cc1cc(O)cc(C)c1C[C@H](N)C(=O)N1Cc2ccccc2C[C@@H]1C(=O)NCc1nc2ccccc2[nH]1"
  log10 of Ki: -0.30
- Compound: "N[C@@H](Cc1ccc(O)cc1)C(=O)N1Cc2ccccc2CC1CN[C@@H](Cc1ccccc1)C(=O)NC(CC1CCCCC1)C(=O)O (stereo partly drawn)"
  log10 of Ki: 3.02
- Compound: "NC(=O)[C@@H]1CSCSC[C@@H](NC(=O)[C@@H](N)Cc2ccc(O)cc2)C(=O)N[C@@H](Cc2ccccc2)C(=O)N[C@@H](Cc2ccccc2)C(=O)N1 (H-Y[dC]FFC-NH2; linker 2-5 via CH2)"
  log10 of Ki: -1.80
- Compound: "Cc1cc(O)cc(C)c1C[C@H](N)C(=O)N1Cc2ccccc2C[C@H]1C(=O)N[C@@H](Cc1ccccc1)C(=O)N[C@@H](Cc1ccccc1)C(N)=O (H-[Dmt][Tic]FF-NH2)"
  log10 of Ki: 0.08
- Compound: "Cc1cc(O)cc(C)c1C[C@H](N)C(=O)N1Cc2ccccc2C[C@H]1C(=O)NCC(=O)Nc1ccccc1 (H-[Dmt]-[Tic]-Gly-NHPh)"
  log10 of Ki: -1.38
- Compound: "Cc1cc(O)cc(C)c1C[C@H](N)C(=O)N1Cc2ccccc2C[C@H]1CN[C@@H](Cc1ccccc1)C(=O)N[C@@H](Cc1ccccc1)C(N)=O"
  log10 of Ki: -0.03
- Compound: "CO[C@@]12CCC(=O)[C@]3(C)Oc4c(O)ccc5c4[C@@]31CCN(C)[C@@H]2C5"
  log10 of Ki: -2.00

* * *

Assayed System: Delta-type opioid receptor (Mus musculus, UniProt P32300)
Sequence (P32300 whole entry): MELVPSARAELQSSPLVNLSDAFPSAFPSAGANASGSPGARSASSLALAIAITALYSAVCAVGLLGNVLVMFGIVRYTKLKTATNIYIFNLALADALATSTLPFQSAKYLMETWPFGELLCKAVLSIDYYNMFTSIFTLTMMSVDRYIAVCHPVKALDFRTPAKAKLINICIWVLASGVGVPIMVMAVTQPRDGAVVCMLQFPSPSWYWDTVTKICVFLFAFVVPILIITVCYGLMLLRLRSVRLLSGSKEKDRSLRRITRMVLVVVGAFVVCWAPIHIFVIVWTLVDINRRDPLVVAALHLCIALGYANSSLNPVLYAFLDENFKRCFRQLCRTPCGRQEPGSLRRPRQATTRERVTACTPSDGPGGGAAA
Procedure Summary: Agonist activity at delta-opioid receptor in mouse vas deferens
Non-standard residues stand in square brackets, D forms with d. Residues, ends and D or L forms follow the SMILES beside them. *: point of attachment. Dmt = Cc1cc(O)cc(C)c1C[C@H](N)C(=O)O; Tic = O=C(O)[C@@H]1Cc2ccccc2CN1; NHBn = c1ccc(CN*)cc1
Readout Name: EC50 (nM)

- Compound: "Cc1cc(O)cc(C)c1C[C@H](N)C(=O)N1Cc2ccccc2C[C@H]1C(=O)NCC(=O)NCc1ccccc1 (H-[Dmt]-[Tic]-Gly-NHBn)"
  Readout Unit: "nM"
  Measured Value: 2.57
- Compound: "Cc1cc(O)cc(C)c1C[C@H](N)C(=O)N1Cc2ccccc2C[C@@H]1C(=O)NCc1nc2ccccc2[nH]1"
  Readout Unit: "nM"
  Measured Value: 0.02

* * *

Assayed System: Delta-type opioid receptor (Homo sapiens, UniProt P41143)
Sequence (P41143 whole entry): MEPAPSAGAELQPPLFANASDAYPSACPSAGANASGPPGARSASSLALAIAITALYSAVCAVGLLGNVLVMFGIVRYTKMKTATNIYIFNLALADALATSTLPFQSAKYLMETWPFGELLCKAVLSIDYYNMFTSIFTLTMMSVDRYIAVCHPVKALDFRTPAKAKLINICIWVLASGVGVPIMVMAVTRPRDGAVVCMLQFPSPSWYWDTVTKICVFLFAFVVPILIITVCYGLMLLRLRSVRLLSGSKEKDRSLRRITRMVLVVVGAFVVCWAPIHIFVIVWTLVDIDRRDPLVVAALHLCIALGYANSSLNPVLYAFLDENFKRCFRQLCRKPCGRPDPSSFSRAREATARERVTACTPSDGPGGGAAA
Procedure Summary: Displacement of [3H]DPN from human delta opioid receptor expressed in CHO cells by liquid scintillation counting
Format: cell-based
Non-standard residues stand in square brackets, D forms with d. Residues, ends and D or L forms follow the SMILES beside them. *: point of attachment. Dmt = Cc1cc(O)cc(C)c1C[C@H](N)C(=O)O; Tic = O=C(O)[C@@H]1Cc2ccccc2CN1; NHBn = c1ccc(CN*)cc1
Readout Name: Ki (pM)

- Compound: "Cc1cc(O)cc(C)c1C[C@H](N)C(=O)N1Cc2ccccc2C[C@H]1C(=O)NCC(=O)NCc1ccccc1 (H-[Dmt]-[Tic]-Gly-NHBn)"
  Measured Value: 151

* * *

Let's look at some molecules and their measured pKi.
Assayed System: UniProtKB P35372
Procedure Summary: Binding affinity at mu opioid receptor (unknown origin)
pKi: −log10 of the molar value. Non-standard residues stand in square brackets, D forms with d. Residues, ends and D or L forms follow the SMILES beside them. *: point of attachment. Dmt = Cc1cc(O)cc(C)c1C[C@H](N)C(=O)O; Tic = O=C(O)[C@@H]1Cc2ccccc2CN1; NHBn = c1ccc(CN*)cc1
Readout Name: pKi

- Molecule: "NC(=O)[C@H]1CSCSC[C@H](NC(=O)[C@@H](N)Cc2ccc(O)cc2)C(=O)N[C@@H](Cc2ccccc2)C(=O)N[C@@H](Cc2ccc3ccccc3c2)C(=O)N1"
  Measured Value: 9.33
- Molecule: "C[C@H]1[C@H]2Cc3ccc(O)cc3[C@]1(C)CCN2CCC(=O)Nc1ccccc1"
  Measured Value: 9.08
- Molecule: "Cc1cc(O)cc(C)c1C[C@H](N)C(=O)N1Cc2ccccc2C[C@H]1C(=O)NCC(=O)NCc1ccccc1 (H-[Dmt]-[Tic]-Gly-NHBn)"
  Measured Value: 10.51
- Molecule: "CN1CC[C@]23c4c5ccc(O)c4O[C@@]2(C)c2[nH]c4ccccc4c2C[C@@]3(CCCc2ccccc2)[C@H]1C5"
  Measured Value: 7.99

* * *

Let's look at some compounds and their measured Ki.
Assayed System: Kappa-type opioid receptor (Homo sapiens, UniProt P41145)
Sequence (P41145 whole entry): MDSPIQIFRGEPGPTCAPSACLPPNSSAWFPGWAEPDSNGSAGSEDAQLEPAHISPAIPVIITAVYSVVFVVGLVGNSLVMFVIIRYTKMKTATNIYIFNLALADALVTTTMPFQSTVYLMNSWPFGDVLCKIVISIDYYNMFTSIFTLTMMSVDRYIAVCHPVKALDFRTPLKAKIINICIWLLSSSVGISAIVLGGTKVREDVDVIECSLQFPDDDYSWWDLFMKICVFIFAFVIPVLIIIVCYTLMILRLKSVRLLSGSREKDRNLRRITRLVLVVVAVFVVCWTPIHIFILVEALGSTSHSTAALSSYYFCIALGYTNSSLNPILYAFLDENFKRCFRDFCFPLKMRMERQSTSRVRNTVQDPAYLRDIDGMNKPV
Procedure Summary: Binding affinity to kappa opioid receptor (unknown origin)
Readout Name: Ki (nM)

- Compound: "CO[C@@]12CCC(=O)[C@]3(C)Oc4c(O)ccc5c4[C@@]31CCN(C)[C@@H]2C5"
  Readout Name: "Ki"
  Measured Value: 25.2
- Compound: "Oc1ccc2c(c1)[C@@]13CCCC[C@H]1[C@@H](C2)N(CC1CCC1)CC3"
  Readout Name: "Ki"
  Measured Value: 0.073
- Compound: "NC(=O)[C@H]1CSCSC[C@H](NC(=O)[C@@H](N)Cc2ccc(O)cc2)C(=O)N[C@@H](Cc2ccccc2)C(=O)N[C@@H](Cc2ccc3ccccc3c2)C(=O)N1"
  Readout Name: "Ki"
  Measured Value: 1.3
- Compound: "O=C1c2ccc(O)cc2[C@@]23CCCC[C@H]2[C@@H]1N(CC1CCCO1)CC3 (some centres undefined)"
  Readout Name: "Ki"
  Measured Value: 0.18

* * *

Assayed System: Mu-type opioid receptor (Homo sapiens, UniProt P35372)
Procedure Summary: Displacement of [3H]DAMGO from human mu opioid receptor expressed in CHO cell membrane
Format: cell membranes
Details: cho

- Smiles Entry: "Cc1cc(O)cc(C)c1C[C@H](N)C(=O)N1Cc2ccccc2C[C@H]1C(=O)NCC(=O)N1CCc2ccccc2C1"
  Ki [nM]: 3.3

* * *

Assayed System: Delta-type opioid receptor (Homo sapiens, UniProt P41143)
Procedure Summary: Partial agonist activity at delta opioid receptor (unknown origin) assessed as [35S]GTPgammaS binding by cell based assay
Readout Name: EC50

- Smiles Entry: "CN1CC[C@]23c4c5ccc(O)c4O[C@@]2(C)c2[nH]c4ccccc4c2C[C@@]3(CCCc2ccccc2)[C@H]1C5"
  Assayed System: "Delta-type opioid receptor (Homo sapiens, UniProt P41143)"
  Readout Name: "EC50"
  Measured Value: "0.87 nM"

* * *

Assayed System: Kappa-type opioid receptor (Homo sapiens)
Procedure Summary: Agonist activity at human kappa opioid receptor expressed in CHO cell membrane by [35S]GTP-gammaS binding assay
pEC50: −log10 of the molar value.

- Smiles Entry: "O=C(/C=C/C(=O)Oc1ccc2c(c1)[C@@]13CCCC[C@H]1[C@@H](C2)N(CC1CCC1)CC3)Oc1ccc2c(c1)[C@@]13CCCC[C@H]1[C@@H](C2)N(CC1CCC1)CC3"
  Assayed System: "Kappa-type opioid receptor (Homo sapiens)"
  pEC50: 8.37

* * *

Assayed System: Mu-type opioid receptor (Homo sapiens, UniProt P35372)
Procedure Summary: Displacement of [3H]DAMGO from human mu opioid receptor expressed in CHO cell membrane
Assay type: cell membranes
Let's look at some compounds and their measured Ki.

- Smiles Entry: "Cc1cc(O)cc(C)c1C[C@H](N)C(=O)N1Cc2ccccc2C[C@@H]1C(=O)NCC(=O)N(c1ccccc1)c1ccccc1"
  Ki [nM]: 1.71
- Smiles Entry: "CN1CC[C@]23c4c5ccc(O)c4O[C@@]2(CO)C(=O)CC[C@@]3(O)[C@H]1C5"
  Ki [nM]: 3.2
